The origin of these recorded values is patent US10899764B2.

# Test target: IDO in HeLa cells (Homo sapiens (Human), UniProt P14902)
# Sequence (P14902 whole entry): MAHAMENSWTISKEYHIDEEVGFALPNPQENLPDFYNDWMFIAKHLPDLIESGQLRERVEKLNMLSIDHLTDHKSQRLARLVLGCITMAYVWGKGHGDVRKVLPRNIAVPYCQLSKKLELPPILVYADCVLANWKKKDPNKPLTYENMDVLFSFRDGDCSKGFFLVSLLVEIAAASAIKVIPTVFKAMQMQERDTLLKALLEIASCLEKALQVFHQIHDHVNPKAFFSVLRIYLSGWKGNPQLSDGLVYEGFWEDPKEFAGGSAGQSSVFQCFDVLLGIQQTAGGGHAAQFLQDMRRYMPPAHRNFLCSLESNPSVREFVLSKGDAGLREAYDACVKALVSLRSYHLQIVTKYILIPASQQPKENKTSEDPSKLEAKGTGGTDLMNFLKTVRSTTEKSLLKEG
# Assay details: Inhibition activity on IDO in HeLa cells (INF-γ induced)
# Format: cell-based
# Measurement setup: HeLa cells, INF-γ and tryptophan, 48 hours; read-out: IC50 for inhibiting the activity of IDO in HeLa cells
pIC50: −log10 of the molar value. Where a name gives a salt, the structure may show the parent alone.
Measured parameter: pIC50

Molecule	pIC50
COCCn1cc(-c2ccc(N3CCC(C4c5c(F)cccc5-c5cncn54)CC3)cc2)cn1 (stereo not drawn) [Example 42, trifluoroacetate]	6.60

a: Fc1cccc2c1C(C1CCN(c3ccc(OC4CCOC4)cc3)CC1)n1cncc1-2 (stereo not drawn)
b: Fc1cccc2c1C(C1CCN(c3ncc(-c4ccccc4)s3)CC1)n1cncc1-2 (stereo not drawn) [Example 23, trifluoroacetate]
Returns the identifier with the smallest measured pIC50 among a and b . State your choice using its label.
b

###

# Test target: IDO in HeLa cells (Homo sapiens (Human))
# Assay details: Inhibition activity on IDO in HeLa cells (INF-γ induced)
# Assay type: cell-based
# Measurement setup: HeLa cells, INF-γ and tryptophan, 48 hours; read-out: IC50 for inhibiting the activity of IDO in HeLa cells
pIC50: −log10 of the molar value. Structures can show the parent of a compound that is named as a salt.
Measured parameter: pIC50

Compound	pIC50
N#Cc1ccc(NC(=O)N2CCC(C3c4c(F)cccc4-c4cncn43)CC2)cc1 (stereo not drawn) [Example 22, trifluoroacetate]	6.89
CC(=O)NCCn1cc(-c2ccc(N3CCC(C4c5c(F)cccc5-c5cncn54)CC3)cc2)cn1 (stereo not drawn) [Example 43, trifluoroacetate]	6.77
OC[C@@H](O)Cn1cc(-c2ccc(N3CCC(C4c5c(F)cccc5-c5cncn54)CC3)cc2)cn1 (stereo partly drawn)	6.53
Fc1cccc2c1C(C1CCN(c3ccccn3)CC1)n1cncc1-2 (stereo not drawn) [Example 15, trifluoroacetate]	6.70
COc1ccc(N2CCC(C3c4c(F)cccc4-c4cncn43)CC2)cc1 (stereo not drawn) [Example 4, trifluoroacetate]	6.73
Fc1cccc2c1C(C1CCN(c3ncc(-c4cnn(C5CCOCC5)c4)cn3)CC1)n1cncc1-2 (stereo not drawn)	6.70

A: CS(=O)(=O)N1CCC(Oc2ccc(N3CCC(C4c5c(F)cccc5-c5cncn54)CC3)cc2)CC1 (stereo not drawn)
B: CS(=O)(=O)N1CCCC(Oc2cnc(N3CCC(C4c5c(F)cccc5-c5cncn54)CC3)nc2)C1 (stereo not drawn) [Example 37, trifluoroacetate]
C: O=C(NC1CCOCC1)c1ccc(N2CCC(C3c4c(F)cccc4-c4cncn43)CC2)cc1 (stereo not drawn) [Example 11, trifluoroacetate]
Task for the reader: rank each entry by its pIC50, from the minimum upward. Arrange the labels as the request states and list them.
C, A, B
